Recorded values, source paper PMC9214071.

Target: PAK4 (Homo sapiens, UniProt O96013)
Sequence (O96013 whole entry): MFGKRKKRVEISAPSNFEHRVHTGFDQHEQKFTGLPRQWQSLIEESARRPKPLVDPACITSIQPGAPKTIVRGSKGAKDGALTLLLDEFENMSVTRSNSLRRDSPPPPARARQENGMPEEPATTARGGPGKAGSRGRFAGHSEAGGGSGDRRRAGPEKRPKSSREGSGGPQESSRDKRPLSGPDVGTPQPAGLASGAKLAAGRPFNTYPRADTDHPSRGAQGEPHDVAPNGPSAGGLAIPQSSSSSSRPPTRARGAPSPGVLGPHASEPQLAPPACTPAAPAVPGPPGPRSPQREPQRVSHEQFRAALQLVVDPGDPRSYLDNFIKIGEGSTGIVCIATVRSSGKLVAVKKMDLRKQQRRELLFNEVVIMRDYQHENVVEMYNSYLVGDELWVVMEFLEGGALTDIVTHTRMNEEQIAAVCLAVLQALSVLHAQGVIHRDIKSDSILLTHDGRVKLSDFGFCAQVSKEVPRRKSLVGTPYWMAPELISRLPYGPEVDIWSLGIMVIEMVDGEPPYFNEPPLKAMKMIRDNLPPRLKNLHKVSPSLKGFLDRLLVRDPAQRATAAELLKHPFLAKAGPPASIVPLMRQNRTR
Assay: PAK4 HTRF assay
Type: biochemical
Settings: PAK4 Ki, HTRF; average of two independent experiments
measured attribute: pKi
Would you please state pKi, meaning minus log10 of the concentration in mol/L, as a bare number?

What the record says about N#Cc1cccc(Nc2nccc(-n3ccc4ccc(C#CC5(O)CCCCC5)cc43)n2)c1 : pKi is 6.62

What the record says about NS(=O)(=O)c1cccc(Nc2nccc(-n3ccc4ccc(C#CC5(O)CCCCC5)cc43)n2)c1 : pKi is 7.08

What the record says about Nc1nccc(-n2ccc3cnc(C#CC4(O)CCCCC4)cc32)n1 : pKi is 7.89

What the record says about OC1(C#Cc2ccc3ccn(-c4ccnc(NCc5ccccc5Cl)n4)c3c2)CCCCC1 : pKi is 6.45

What the record says about Nc1nccc(-n2cc(C(=O)Nc3ccccc3)c3ccc(C#CC4(O)CCCCC4)cc32)n1 : pKi is 6.09

What the record says about CC(C)Nc1nccc(-n2ccc3ccc(C#CC4(O)CCCCC4)cc32)n1 : pKi is 5.96
